assay: Solubility of Compound I maleate salt in solvents (saturated solution, HPLC)
Assay type: physicochemical
test settings: 25 °C, thermodynamic from solid; solvent Water; 25±1° C., 48 hours
Structures can show the parent of a compound that is named as a salt.
quantity: solubility at 48 h
Form entry: enter the amount, then its unit.

Quick check: solubility at 48 h of CC(C)C(=O)N1CCC(c2cc(-c3ccc(NC(=O)c4cn(C(C)C)c(=O)n(-c5ccccn5)c4=O)cc3)c3c(N)ncnn23)CC1 [Compound I maleate salt] ?
20 µg/mL

###

assay: Solubility of Compound I maleate salt in solvents (saturated solution, HPLC)
Assay type: physicochemical
test settings: 25 °C, organic solvent or mixture, thermodynamic from solid; solvent DMF; 25±1° C., 48 hours
Counter-ions that a name gives are not always drawn.
quantity: solubility at 48 h

Quick check: solubility at 48 h of CC(C)C(=O)N1CCC(c2cc(-c3ccc(NC(=O)c4cn(C(C)C)c(=O)n(-c5ccccn5)c4=O)cc3)c3c(N)ncnn23)CC1 [Compound I maleate salt] ?
> 50 mg/mL
